# reported TGI; entries follow
- System: OVCAR-5 ovarian
- test.summary: NCI tumour cell line growth inhibition, 384-well format

These solved cases illustrate the format of a correct answer.
> print(dat)
                                   compound  measured
1  Cc1cnc(-c2ccc(-c3ccc(NC(=O)Nc4c(F)cc(F)cc4F)cc3F)c3c2C(=O)NC3)[nH]1   2870 nM
2  CC[C@@]1(O)C(=O)OCc2c1cc1n(c2=O)Cc2c-1nc1cc(F)c(C)c3c1c2[C@@H](NC(=O)CO)CC3    268 nM
3  NC1(C(=O)N[C@@H](CCO)c2ccc(Cl)cc2)CCN(c2ncnc3[nH]ccc23)CC1  96100 nM

State its TGI on OVCAR-5 ovarian: C[C@]12CC[C@@H]3c4ccc(OC(=O)N(CCCl)CCCl)cc4CC[C@H]3[C@@H]1CC[C@@H]2OP(=O)(O)O
> 100000 nM

----------
- System: TK-10 renal
- test.summary: NCI tumour cell line growth inhibition, 384-well format; in the data active means GI50 below about 0.43 µM; inactive means the rest
Pick from yes (active), no (inactive) when you respond.

Examples with answers:
> print(dat)
                                   compound  test.system  answer.label
1  COCCn1c2c([n+](Cc3cnccn3)c1C)C(=O)c1ccccc1C2=O  TK-10 renal           yes
2  COc1cc(N2CCC(N)CC2)ccc1Nc1ncc(Cl)c(-c2c[nH]c3ccccc23)n1  TK-10 renal            no
3  CC[C@@]1(O)C(=O)OCc2c1cc1n(c2=O)Cc2c-1nc1cc(F)c(C)c3c1c2[C@@H](NC(=O)CO)CC3  TK-10 renal           yes
4  COc1cc(C)[nH]c(=O)c1CNC(=O)c1c(C)n([C@H](C)C2CCN(CC(F)(F)F)CC2)c2ccccc12  TK-10 renal            no

Please look at the following compound next.
Which outcome did this test record for the compound Cc1cnc(-c2ccc(-c3ccc(NC(=O)Nc4c(F)cc(F)cc4F)cc3F)c3c2C(=O)NC3)[nH]1 ?
no

----------
- System: SF-539 CNS
- test.summary: NCI tumour cell line growth inhibition, 384-well format; in the data active = GI50 below about 0.43 µM; inactive = the rest
Pick from active, inactive when you respond.

Examples with answers:
> print(dat)
                                   compound  test.system  answer.label
1  Cc1cnc(-c2ccc(-c3ccc(NC(=O)Nc4c(F)cc(F)cc4F)cc3F)c3c2C(=O)NC3)[nH]1   SF-539 CNS        active
2  C[C@]12CC[C@@H]3c4ccc(OC(=O)N(CCCl)CCCl)cc4CC[C@H]3[C@@H]1CC[C@@H]2OP(=O)(O)O   SF-539 CNS      inactive
3  CC[C@@]1(O)C(=O)OCc2c1cc1n(c2=O)Cc2c-1nc1cc(F)c(C)c3c1c2[C@@H](NC(=O)CO)CC3   SF-539 CNS        active
4  NC1(C(=O)N[C@@H](CCO)c2ccc(Cl)cc2)CCN(c2ncnc3[nH]ccc23)CC1   SF-539 CNS        active

Which outcome did this test record for the compound COc1cc(N2CCC(N)CC2)ccc1Nc1ncc(Cl)c(-c2c[nH]c3ccccc23)n1 ?
inactive

----------
- Test system: M14 melanoma
- test.summary: NCI tumour cell line growth inhibition, 384-well format; in the data active = GI50 below about 0.43 µM; inactive = the rest
Pick from y = active, n = inactive when you respond.

> print(dat)
                                   compound   test.system  answer.label
1  Cc1cnc(-c2ccc(-c3ccc(NC(=O)Nc4c(F)cc(F)cc4F)cc3F)c3c2C(=O)NC3)[nH]1  M14 melanoma             y

Which outcome did this test record for the compound NC1(C(=O)N[C@@H](CCO)c2ccc(Cl)cc2)CCN(c2ncnc3[nH]ccc23)CC1 ?
n

Which outcome did this test record for the compound COCCn1c2c([n+](Cc3cnccn3)c1C)C(=O)c1ccccc1C2=O ?
y

Which outcome did this test record for the compound COc1cc(C)[nH]c(=O)c1CNC(=O)c1c(C)n([C@H](C)C2CCN(CC(F)(F)F)CC2)c2ccccc12 ?
n
